- Tested on: M. mycetomatis MM55
- ASSAY_PROCEDURE: IC50 determination, 2-fold dilution series 16 to 0.03125 μM
- Assay type: cell-based, Madurella mycetomatis
- MEASUREMENT_PARAMETERS: Madurella mycetomatis, MM55, mean of replicates; read-out: IC90 mean
What IC90 was measured for each of the following?
Report as a plain number; the unit µM is understood.

Please report the recorded IC90 for Clc1ccc(COC(Cn2ccnc2)c2ccc(Cl)cc2Cl)c(Cl)c1 (stereo not drawn) .
1.23

Report IC90 for O=C(/C(=C/c1ccc(Cl)cc1Cl)n1ccnc1)c1ccc(Cl)cc1 please.
4.7

Given the molecule O=S(=O)(Nc1ccc(-n2cccc2)cc1)c1ccc(Cl)c(Cl)c1 , what is its reported IC90?
21.8

What value of IC90 has been reported for the following molecule? Oc1c(C(Nc2nc3ccccc3s2)c2ccc(OC(F)F)cc2)ccc2cccnc12 (stereo not drawn)
18.2

Suppose we examine the molecule O=S(=O)(Nc1cccc2cccnc12)c1ccccc1 ; what IC90 value has been reported?
22.7

Which IC90 reading was recorded for the molecule CCN(CC)CCn1c(=N)n(CC(O)COc2ccc(Cl)cc2Cl)c2ccccc21 (stereo not drawn) ?
18.7

----------
- System: M. mycetomatis genome strain MM55
- ASSAY_PROCEDURE: CLSI M38-A2 based in vitro susceptibility screening (XTT or resazurin), growth at fixed concentration
- Type: cell-based, Madurella mycetomatis
- MEASUREMENT_PARAMETERS: Madurella mycetomatis, 100 uM, replicate 1; read-out: Percentage survival at 100um, 100 uM A (first replicate column)
MEASURED_METRIC: activity at 100 µM (%)
Just the number in %, nothing appended.

Query (compound): Oc1c(C(Nc2nc3ccccc3s2)c2ccc(OC(F)F)cc2)ccc2cccnc12 (centres unmarked) ; field requested: activity at 100 µM
15.6

Query: activity at 100 µM; subject: NNC(=O)c1ccncc1
84.8

Please give the measured activity at 100 µM for this compound: CCOc1ccc(C(=O)NCCc2ccccc2)cc1
63.4

activity at 100 µM lookup needed for N[C@@H]1CN(c2c(F)cc3c(=O)c(C(=O)O)cn([C@@H]4C[C@@H]4F)c3c2Cl)CC12CC2 , thanks.
86.1

Consider the compound shown here: CCCCCc1ccc(C(=O)NCCn2cc(CCCCCc3cnc(N)[nH]3)nn2)cc1 What is its recorded activity at 100 µM?
67

----------
- Test system: M. mycetomatis genome strain MM55
- ASSAY_PROCEDURE: CLSI M38-A2 based in vitro susceptibility screening (XTT or resazurin), growth at fixed concentration
- Type: cell-based, Madurella mycetomatis
- MEASUREMENT_PARAMETERS: Madurella mycetomatis, 100 uM, mean of three replicates; read-out: Percentage survival at 100um, 100 uM mean
Consider the following molecules; for each one, report its activity at 100 µM.
Field format: number, assumed %, no unit text.

Which activity at 100 µM value is on record for CC(C)c1cc2c(cc1S(=O)(=O)O)[C@@]1(C)CCC[C@@](C)(C(=O)O)[C@@H]1CC2 ?
82.2

// query activity at 100 µM value for entry CCc1nc2ccc(Cl)cn2c1C(=O)NCc1ccc(N2CCC(c3ccc(OC(F)(F)F)cc3)CC2)cc1
84.8

Query (molecule): Cc1c(OCC(F)(F)F)ccnc1C[S+]([O-])c1nc2ccccc2[nH]1 (centres unmarked) ; field requested: activity at 100 µM
55.3

Would you kindly share the measured activity at 100 µM for CCOC(=O)N[C@@H]1CC[C@@H]2[C@@H](C1)C[C@H]1C(=O)O[C@H](C)[C@H]1[C@H]2/C=C/c1ccc(-c2cccc(F)c2)cn1 ?
72.9

Bench note: what activity at 100 µM did CCC(C)NCC(O)Cn1c2ccc(Cl)cc2c2cc(Cl)ccc21 (centres unmarked) show?
3.38

So what does the record say about activity at 100 µM for CCc1nc(N)nc(N)c1C#CCc1ccccc1 ?
2.68

Request the reported activity at 100 µM associated with Cc1ccccc1NC(=O)Nc1cccc([N+](=O)[O-])c1
92.5

Look up activity at 100 µM for this molecule: Nc1nc(=O)c(Br)c(-c2cccc(Cl)c2)[nH]1
75.8
